tested-on: Gal-9 (Homo sapiens, UniProt O00182, A222P/DEL149-219)
Construct: Full-length recombinant human galectins (Gal-1, Gal-3, Gal-4, Gal-8, and Gal-9) for ELISA assays
Sequence (O00182 with tags, fused parts or gaps DEL149-219/A222P): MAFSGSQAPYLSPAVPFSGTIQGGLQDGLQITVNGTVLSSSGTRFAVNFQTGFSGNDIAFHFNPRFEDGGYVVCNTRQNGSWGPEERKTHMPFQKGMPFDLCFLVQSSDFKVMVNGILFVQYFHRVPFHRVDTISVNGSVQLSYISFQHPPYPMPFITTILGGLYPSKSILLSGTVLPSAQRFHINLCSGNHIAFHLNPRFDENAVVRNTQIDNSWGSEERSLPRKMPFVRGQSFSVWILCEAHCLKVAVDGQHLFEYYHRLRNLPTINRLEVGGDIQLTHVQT
assay-remarks: competitive ELISA, inhibition of galectin binding to immobilized asialofetuin
assay-context: competitive ELISA vs immobilized ASF; 0.5 μM Gal-9; at least quadruplicate
endpoint-label: IC50 (µM)

CC(=O)N[C@H]1[C@H](O[C@H]2[C@@H](O)[C@@H](CO)O[C@@H](O[C@H]3[C@H](O)[C@@H](O)[C@H](NC(=S)NCCNC(=O)OC(C)(C)C)O[C@@H]3CO)[C@@H]2O)O[C@H](CO)[C@@H](O[C@@H]2O[C@H](CO)[C@H](O)[C@H](O)[C@H]2NC(C)=O)[C@@H]1O = 326

I = CC(=O)N[C@H]1[C@H](O[C@H]2[C@@H](O)[C@@H](CO)O[C@@H](O[C@H]3[C@H](O)[C@@H](O)[C@H](NC(=S)NCCNC(=O)OC(C)(C)C)O[C@@H]3CO)[C@@H]2O)O[C@H](CO)[C@@H](O)[C@@H]1O[C@@H]1O[C@H](CO)[C@H](O)[C@H](O)[C@H]1O
II = CC(C)(C)OC(=O)NCCNC(=S)N[C@@H]1O[C@H](CO)[C@@H](O[C@@H]2O[C@H](CO)[C@H](O)[C@H](O)[C@H]2O)[C@H](O)[C@H]1O
Compare I and II by numeric IC50 and name the larger one. Returns: label corresponding to the selected item.
II
(II: 2180 µM, I: 230 µM)

1 = CC(=O)N[C@@H]1[C@@H](O)[C@H](O[C@@H]2O[C@H](CO)[C@H](O)[C@H](O)[C@H]2O)[C@@H](CO)O[C@H]1NC(=S)NCCNC(=O)OC(C)(C)C
2 = CC(=O)N[C@@H]1[C@@H](O)[C@H](O[C@@H]2O[C@H](CO)[C@H](O)[C@H](O[C@@H]3O[C@H](CO)[C@@H](O[C@@H]4O[C@H](CO)[C@H](O)[C@H](O)[C@H]4O)[C@H](O)[C@H]3NC(C)=O)[C@H]2O)[C@@H](CO)O[C@H]1NC(=S)NCCNC(=O)OC(C)(C)C
// task: argmin of IC50 over [ 1 , 2 ] Returns: label corresponding to the selected item.
2
(2: 52 µM, 1: 2840 µM)

---

tested-on: Gal-8 (Homo sapiens)
Construct: Full-length recombinant human galectins (Gal-1, Gal-3, Gal-4, Gal-8, and Gal-9) for ELISA assays
Sequence (O00214 whole entry): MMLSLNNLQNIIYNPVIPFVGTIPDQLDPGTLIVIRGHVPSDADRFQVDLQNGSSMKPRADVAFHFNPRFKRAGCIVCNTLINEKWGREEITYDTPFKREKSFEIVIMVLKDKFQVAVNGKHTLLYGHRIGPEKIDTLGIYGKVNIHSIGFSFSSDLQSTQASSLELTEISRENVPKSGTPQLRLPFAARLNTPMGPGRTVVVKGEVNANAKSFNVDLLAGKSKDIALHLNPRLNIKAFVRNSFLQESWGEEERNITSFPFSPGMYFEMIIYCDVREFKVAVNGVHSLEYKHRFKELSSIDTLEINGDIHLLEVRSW
assay-remarks: competitive ELISA, inhibition of galectin binding to immobilized asialofetuin
assay-context: competitive ELISA vs immobilized ASF; 0.5 μM Gal-8; at least quadruplicate
endpoint-label: IC50 (µM)

Here's what some known entries look like.
CC(=O)N[C@@H]1[C@@H](O)[C@H](O[C@@H]2O[C@H](CO)[C@H](O)[C@H](O[C@@H]3O[C@H](CO)[C@@H](O[C@@H]4O[C@H](CO)[C@H](O)[C@H](O)[C@H]4O)[C@H](O)[C@H]3NC(C)=O)[C@H]2O)[C@@H](CO)O[C@H]1NC(=S)NCCNC(=O)OC(C)(C)C = 406
CC(=O)N[C@H]1[C@H](O[C@H]2[C@@H](O)[C@@H](CO)O[C@@H](O[C@H]3[C@H](O)[C@@H](O)[C@H](NC(=S)NCCNC(=O)OC(C)(C)C)O[C@@H]3CO)[C@@H]2O)O[C@H](CO)[C@@H](O[C@@H]2O[C@H](CO)[C@H](O)[C@H](O)[C@H]2O)[C@@H]1O = 130
CC(C)(C)OC(=O)NCCNC(=S)N[C@@H]1O[C@H](CO)[C@@H](O[C@@H]2O[C@H](CO)[C@H](O)[C@H](O)[C@H]2O)[C@H](O)[C@H]1O = 2870
CC(=O)N[C@@H]1[C@@H](O)[C@H](O[C@@H]2O[C@H](CO)[C@H](O)[C@H](O[C@@H]3O[C@H](CO)[C@@H](O[C@@H]4O[C@H](CO)[C@H](O)[C@H](O)[C@H]4NC(C)=O)[C@H](O)[C@H]3NC(C)=O)[C@H]2O)[C@@H](CO)O[C@H]1NC(=S)NCCNC(=O)OC(C)(C)C = 270

1 = CC(=O)N[C@H]1[C@H](O[C@H]2[C@@H](O)[C@@H](CO)O[C@@H](O[C@H]3[C@H](O)[C@@H](O)[C@H](NC(=S)NCCNC(=O)OC(C)(C)C)O[C@@H]3CO)[C@@H]2O)O[C@H](CO)[C@@H](O)[C@@H]1O[C@@H]1O[C@H](CO)[C@H](O)[C@H](O)[C@H]1O
2 = CC(=O)N[C@@H]1[C@@H](O)[C@H](O[C@@H]2O[C@H](CO)[C@H](O)[C@H](O)[C@H]2O)[C@@H](CO)O[C@H]1NC(=S)NCCNC(=O)OC(C)(C)C
Compare 1 and 2 by numeric IC50 and name the larger one. Returns: label corresponding to the selected item.
2
